# Test system: CCRF-CEM
# assay_method_text: CellTiterGlo cell viability assay, initial screening
# Assay type: cell-based
# experimental_conditions: CCRF-CEM; 72 hr; Table II
readout_kind: M.I. %: maximum percentage inhibition of cell viability (%)
Numbers only, in %.

Some solved cases for reference:
C[C@H](NP(=O)(OC[C@@H]1C[C@@H](O)[C@H](n2cnc3c(N)ncnc32)O1)Oc1cccc2ccccc12)C(=O)OCc1ccccc1 (stereo partly shown) :: 100
C[C@H](NP(=O)(Oc1cccc2ccccc12)O[C@@H]1C[C@@H](CO)O[C@H]1n1cnc2c(N)ncnc21)C(=O)OCc1ccccc1 (stereo partly shown) :: 99

Your task in this section: give M.I. %: maximum percentage inhibition of cell viability for each listed record.
1. CCCCCOC(=O)[C@H](CC(C)C)NP(=O)(OC[C@@H]1C[C@@H](O)[C@H](n2cnc3c(N)ncnc32)O1)Oc1cccc2ccccc12 (mixture of isomers)
2. C[C@H](NP(=O)(OC[C@@H]1C[C@@H](OP(=O)(N[C@@H](C)C(=O)OCc2ccccc2)Oc2ccccc2)[C@H](n2cnc3c(N)ncnc32)O1)Oc1ccccc1)C(=O)OCc1ccccc1 (stereo partly shown)

1: 100; 2: 100

---

Record form. Attribute: M.I. %: maximum percentage inhibition of cell viability. Fill in for each entry.
# Tested on: MOLT-4
# assay_method_text: CellTiterGlo cell viability assay, initial screening
# Assay type: cell-based
# experimental_conditions: MOLT-4; 72 hr; Table II
Give bare numbers, in %.

Some solved cases for reference:
COC(=O)C(C)(C)NP(=O)(OC[C@@H]1C[C@@H](O)[C@H](n2cnc3c(N)ncnc32)O1)Oc1cccc2ccccc12 (stereo partly shown) :: 97
CCCCCOC(=O)[C@H](CC(C)C)NP(=O)(OC[C@@H]1C[C@@H](O)[C@H](n2cnc3c(N)ncnc32)O1)Oc1cccc2ccccc12 (mixture of isomers) :: 100

Your task in this section: give M.I. %: maximum percentage inhibition of cell viability for each listed record.
1. CCOC(=O)CCc1ccccc1OP(=O)(N[C@@H](C)C(=O)OCc1ccccc1)OC[C@@H]1C[C@@H](O)[C@H](n2cnc3c(N)ncnc32)O1 (stereo partly shown)
2. C[C@H](NP(=O)(OC[C@@H]1C[C@@H](O)[C@H](n2cnc3c(N)ncnc32)O1)Oc1cccc2ccccc12)C(=O)OCc1ccccc1 (stereo partly shown)

1: 100; 2: 100

---

# Tested on: HepG2
# assay_method_text: CellTiterGlo cell viability assay, initial screening
# Format: cell-based
# experimental_conditions: Homo sapiens, HepG2, 72 h, read-out: IC50 (relative IC50)
readout_kind: IC50

CCOC(=O)CCc1ccccc1OP(=O)(N[C@@H](C)C(=O)OCc1ccccc1)OC[C@@H]1C[C@@H](O)[C@H](n2cnc3c(N)ncnc32)O1 (stereo partly drawn) :: 15 to 100 µM
C[C@H](NP(=O)(Oc1ccccc1)O[C@@H]1C[C@@H](CO)O[C@H]1n1cnc2c(N)ncnc21)C(=O)OCc1ccccc1 (stereo partly drawn) :: 15 to 100 µM

Here is another compound to look at.
Look up and report IC50, with HepG2 as system, for COC(=O)C(C)(C)NP(=O)(OC[C@@H]1C[C@@H](O)[C@H](n2cnc3c(N)ncnc32)O1)Oc1cccc2ccccc12 (stereo partly drawn)
15 to 100 µM

---

# System: HL-60
# assay_method_text: CellTiterGlo cell viability assay, initial screening
# Format: cell-based
# experimental_conditions: HL-60; 72 hr; Table II
Record form. Attribute: M.I. %: maximum percentage inhibition of cell viability. Fill in for each entry.
Could you kindly put the unit after your number?

Some solved cases for reference:
CCOC(=O)CCc1ccccc1OP(=O)(N[C@@H](C)C(=O)OCc1ccccc1)OC[C@@H]1C[C@@H](O)[C@H](n2cnc3c(N)ncnc32)O1 (some centres unmarked) :: 100%
COC(=O)C(C)(C)NP(=O)(OC[C@@H]1C[C@@H](O)[C@H](n2cnc3c(N)ncnc32)O1)Oc1cccc2ccccc12 (some centres unmarked) :: 74%
Nc1ncnc2c1ncn2[C@@H]1O[C@H](COP(=O)(NCC(=O)OCc2ccccc2)Oc2ccccc2)C[C@H]1O (some centres unmarked) :: 82%
C[C@H](NP(=O)(OC[C@@H]1C[C@@H](O)[C@H](n2cnc3c(N)ncnc32)O1)Oc1cccc2ccccc12)C(=O)OCc1ccccc1 (some centres unmarked) :: 100%
C[C@H](NP(=O)(Oc1ccccc1)O[C@@H]1C[C@@H](CO)O[C@H]1n1cnc2c(N)ncnc21)C(=O)OCc1ccccc1 (some centres unmarked) :: 57%
CCCCCOC(=O)[C@H](CC(C)C)NP(=O)(OC[C@@H]1C[C@@H](O)[C@H](n2cnc3c(N)ncnc32)O1)Oc1cccc2ccccc12 (mixture of isomers) :: 100%

Your task in this section: give M.I. %: maximum percentage inhibition of cell viability for each listed record.
1. C[C@H](NP(=O)(Oc1cccc2ccccc12)O[C@@H]1C[C@@H](CO)O[C@H]1n1cnc2c(N)ncnc21)C(=O)OCc1ccccc1 (some centres unmarked)
2. C[C@H](NP(=O)(OC[C@@H]1C[C@@H](OP(=O)(N[C@@H](C)C(=O)OCc2ccccc2)Oc2ccccc2)[C@H](n2cnc3c(N)ncnc32)O1)Oc1ccccc1)C(=O)OCc1ccccc1 (some centres unmarked)

1. 99%
2. 80%

These measurements were taken from patent US12054510B2.
